Entry source: patent US20250011302A1

System: Ba/F3 EGFR-Del19/T790M/C797S cells
Test Description: Proliferation inhibitory activity against Ba/F3 EGFR-Del19/T790M/C797S cells (PrestoBlue method)
Type: cell-based, murine
Test Conditions: Mus musculus, Ba/F3 cells stably expressing EGFR Del19/T790M/C797S, 72 hours
Metric Name: IC50 (nM)

[P] CN(C)CCN(C)c1nc(OCC(F)(F)F)c(Nc2nccc(-c3cn(C)c4ccccc34)n2)cc1NC(=O)CCN(C)CCN(C)c1nc(OCC(F)(F)F)c(Nc2nccc(-c3cn(C)c4ccccc34)n2)cc1N [Compound 1]
[Q] C=CC(=O)Nc1cc(Nc2nccc(-c3cn(C)c4ccccc34)n2)c(OCC(F)(F)F)nc1N(C)CCN(C)CCC(=O)Nc1cc(Nc2nccc(-c3cn(C)c4ccccc34)n2)c(OCC(F)(F)F)nc1N(C)CCN(C)C [Compound 4]
**Query** Input pair: P , Q . Output: entry with lower IC50. I would appreciate it if you answered with the label of your choice.
**Result** Q
